From: ChEMBL document CHEMBL3507680

measurement-notes: Human HepG2 cell viability assay in 384 well format
Type: toxicity, cell-based
Set-up: dose 125 nL, time 70.5 hour; concentration not given beside the values
stated-conditions: HepG2 cells, read-out: Inhibition
cytotoxicity at 70.5 h values, listed per item
Value expressed in %; do not type the unit.

Consider the worked cases shown below.
COc1ccc(F)cc1CN(CC(N)=O)C(C)C; -3.68
O=C(c1csc(I)c1)N1CCc2c(ncn2C2CC2)C1; -3.47
CCCOc1ccccc1NCC(=O)Nc1ccc(CC)cc1; -6.36

For record CN(C)Cc1cc(C2CCCCN2S(=O)(=O)Cc2ccccc2)nn1C (stereo unspecified) the listed cytotoxicity at 70.5 h is -14.1

For record `CC(C)NC(=O)N1CCN2C(=O)OC[C@H]2C1` the listed cytotoxicity at 70.5 h is 10.9

For record `CNC(=O)[C@@H]1C[C@H]2CN(c3ncccn3)C[C@H]2N1C(C)C` the listed cytotoxicity at 70.5 h is -1.97

---

cytotoxicity at 70.5 h values, listed per item
measurement-notes: Human HepG2 cell viability assay in 384 well format
Assay type: toxicity, cell-based
Parameters: dose 125 nL, time 70.5 hour; concentration not given beside the values
stated-conditions: HepG2 cells, read-out: Inhibition

Consider the worked cases shown below.
O=C(Nc1nnc(C(F)F)s1)NC(CCO)c1cccs1 (configuration not stated); 32.8%
Cc1ncc2c(n1)CCCC2NC(=O)c1ccncc1 (configuration not stated); 14.6%
COCCN(C)C[C@@H]1CN(C(=O)c2c(F)ccc(OC)c2F)C[C@@H]1CO; 47.7%
Nc1nccnc1C1CN(C(=O)c2ccnnc2)CCO1 (configuration not stated); -6.55%
CCn1nnc2cc(C(=O)N3CCCC3Cn3cc(C)cn3)ccc21 (configuration not stated); -19.4%

For record `Cc1ccc(-c2ncc(C(=O)NCCNC(=O)C(C)C)s2)c(C)c1` the listed cytotoxicity at 70.5 h is -8.72%

For record `CN1CCC(N2CC[C@H](c3nc4ccc(C(F)(F)F)cc4[nH]3)C2)CC1` the listed cytotoxicity at 70.5 h is -13.2%

---

cytotoxicity at 70.5 h values, listed per item
measurement-notes: Human HepG2 cell viability assay in 384 well format
Type: toxicity, cell-based
Design: dose 125 nL, time 70.5 hour; concentration not given beside the values
stated-conditions: HepG2 cells, read-out: Inhibition
Value expressed in %; do not type the unit.

O=C(c1cccnc1)N1C[C@H]2CN(Cc3cccc(F)c3)C(=O)[C@H]2C1; -3.89
O=C(NCC1CCCO1)c1nc2c(s1)CCCN2Cc1ccccc1 (stereo not drawn); -4.02

For record `CC(C)CCC(=O)Nc1ncn(CC(=O)N2CCCCCC2)n1` the listed cytotoxicity at 70.5 h is -2.61

---

measurement-notes: Human HepG2 cell viability assay in 384 well format
Format: toxicity, cell-based
Parameters: dose 125 nL, time 70.5 hour; concentration not given beside the values
stated-conditions: HepG2 cells, read-out: Inhibition
reported-metric: cytotoxicity at 70.5 h (%)
Value expressed in %; do not type the unit.

Consider the worked cases shown below.
CN1CCCN(C(C(=O)O)c2ccc3c(c2)OCO3)CC1 (configuration not stated); 0.827
O=C(Nc1cccn(CC(F)(F)F)c1=O)c1ccc(F)cc1; 19.4
CNC(=O)c1nc2c(s1)CCN(C(=O)c1cccnc1)CC2; -0.11
CC(C)(O)CN1CCN(C(=O)c2cccc3cccnc23)CC1; -2.87

Please turn your attention to the following entry.
For record CCC(C)N(Cc1ccncc1)Cc1ccccc1Cn1cccn1 (configuration not stated) the listed cytotoxicity at 70.5 h is -11.3

---

measurement-notes: Human HepG2 cell viability assay in 384 well format
Format: toxicity, cell-based
Set-up: dose 125 nL, time 70.5 hour; concentration not given beside the values
stated-conditions: HepG2 cells, read-out: Inhibition
cytotoxicity at 70.5 h values, listed per item
Value expressed in %; do not type the unit.

Consider the worked cases shown below.
CN(CC(=O)N1CCC(OCc2cccnc2)CC1)c1ccccc1; -17.1
CC(c1ccco1)N(C)Cc1nc2c(cnn2C)c(=O)[nH]1 (stereo unspecified); -11.1
CC(C)N1CCc2ncn(C(C)C)c2C1C(=O)NCCN1CCCC1 (stereo unspecified); -7.38
CCc1cnc(N)nc1NCCCN1CCCCC1CO (stereo unspecified); -8.8
CS(=O)(=O)c1ccc(NCc2ccccc2)cn1; -2.92

For record `O=S(=O)(c1cc(F)cc(F)c1)N1CCC(Oc2ccc(Cl)cn2)CC1` the listed cytotoxicity at 70.5 h is 2

---

measurement-notes: Human HepG2 cell viability assay in 384 well format
Format: toxicity, cell-based
Design: dose 125 nL, time 70.5 hour; concentration not given beside the values
stated-conditions: HepG2 cells, read-out: Inhibition
reported-metric: cytotoxicity at 70.5 h (%)
Value expressed in %; do not type the unit.

Consider the worked cases shown below.
Cc1cc(C)n(CC2CCCN2C(=O)CCc2cscn2)n1 (stereo not drawn); -8.27
CC(C)(C)n1ncc2c1CCCC2NCc1cccc(C(N)=O)c1 (stereo not drawn); 3.6
CCOc1ccc2ccccc2c1CNCC1CCS(=O)(=O)C1 (stereo not drawn); -3.67
CC(=O)N(Cc1ncc(C)o1)C1CCN(Cc2cccnc2)C1 (stereo not drawn); 2.44
CN(Cc1n[nH]c2c1CCCC2)C(=O)c1cccc(CCC(C)(C)O)c1; -4.47

For record `Cc1ccc2cc(CN(C)Cc3ncc[nH]3)c(=O)[nH]c2c1` the listed cytotoxicity at 70.5 h is 26.6

For record Cc1cc(C)nc(N2CCCC2c2[nH]ncc2C(=O)N(C)C)n1 (stereo not drawn) the listed cytotoxicity at 70.5 h is -3.67

For record O=C(c1ccncc1)N1CCCC2(CCN(c3cccnc3)C2=O)C1 (stereo not drawn) the listed cytotoxicity at 70.5 h is 0.0433

For record O=c1[nH]c2nc(NCC3CCCO3)ncc2c(=O)n1-c1ccc(F)cc1 (stereo not drawn) the listed cytotoxicity at 70.5 h is 1.97

For record `COc1ccccc1-n1c(O)cc(C)c(C#N)c1=O` the listed cytotoxicity at 70.5 h is -1.09

For record CN(C)CCC(Nc1nc(N)nc2c1CCNCC2)c1ccccc1 (stereo not drawn) the listed cytotoxicity at 70.5 h is -8.45

For record CC(C)n1cnc2c1C(C(=O)NCCO)N(Cc1ccccc1)CC2 (stereo not drawn) the listed cytotoxicity at 70.5 h is -8.21

For record CN1CCN(c2ncc3c(c2C(=O)O)CCN(C2CCOC2)C3)CC1 (stereo not drawn) the listed cytotoxicity at 70.5 h is -7.02

For record `O=C1C[C@H]2[C@@H](CCN2C(=O)c2ccc[nH]2)N1CCN1CCCC1` the listed cytotoxicity at 70.5 h is -2.17

For record `NC(=O)NCC(=O)N1CCC(c2cc(-c3ccccc3Cl)n[nH]2)CC1` the listed cytotoxicity at 70.5 h is -4.95

For record `CC(C)N1CCN(C(=O)c2ccc(Cn3ccccc3=O)o2)CC1` the listed cytotoxicity at 70.5 h is -5.81

For record COCC(=O)N1CCC2(CC(C(=O)NCc3cccnc3)=NO2)C1 (stereo not drawn) the listed cytotoxicity at 70.5 h is -5.23

For record `COCC(=O)N1CCN(Cc2cccnc2)c2ncccc2C1` the listed cytotoxicity at 70.5 h is 1.38

For record `O=C(c1ccccn1)N1C[C@@H]2CC[C@H](C1)N(C(=O)CCN1CCCC1)C2` the listed cytotoxicity at 70.5 h is 38

For record Cc1noc(C)c1-c1cncc(CC2CCN(C(=O)c3cc[nH]n3)C2)n1 (stereo not drawn) the listed cytotoxicity at 70.5 h is -4.86

For record `Cc1noc(C(C)C)c1C(=O)NCc1cccc(CN(C)C)c1` the listed cytotoxicity at 70.5 h is -1.69

For record `CN(C)C(=O)c1c[nH]nc1C1CCN(S(=O)(=O)c2ccc(Cl)cc2)CC1` the listed cytotoxicity at 70.5 h is 17.9

For record `Cc1nn(C)c(C)c1CC(=O)NCC1(C(N)=O)CCOCC1` the listed cytotoxicity at 70.5 h is 22.8

---

cytotoxicity at 70.5 h values, listed per item
measurement-notes: Human HepG2 cell viability assay in 384 well format
Type: toxicity, cell-based
Design: dose 125 nL, time 70.5 hour; concentration not given beside the values
stated-conditions: HepG2 cells, read-out: Inhibition
Value expressed in %; do not type the unit.

Consider the worked cases shown below.
Cc1csc(C(=O)N2CCC(S(C)(=O)=O)C2)c1 (centres undefined); -3.26
CNC(=O)[C@H]1C[C@@H]2CN(C(=O)c3ccncc3)C[C@@H]2N1S(C)(=O)=O; 22.4
O=C(Nc1ccc(-c2csnn2)cc1)N1CCC(N2CCCC2)C1 (centres undefined); -14.2

Please turn your attention to the following entry.
For record COCC1CN(C(=O)CNC(C)=O)Cc2ncnn2C1 (centres undefined) the listed cytotoxicity at 70.5 h is -8.02
